# protocolText: Kinetic aqueous solubility, pH 7.4
# Format: physicochemical
# assayConditions: aqueous buffer, PBS, Example 4 Table 1
quantity: solubility (µM)

[[record]]
smilesnotation = "CCN(CC)C(=O)c1cc(-c2cccs2)nc2c1c(C)nn2-c1ccccc1"
quantity = "solubility"
reportedvalue = 54


---

# protocolText: Metabolic stability in human liver microsomes
# Assay type: in vitro ADME
# assayConditions: Example 4 Table 1, read-out: Human Liver Microsome Stability t½
quantity: half-life

[[record]]
smilesnotation = "CCN(CC)C(=O)c1cc(-c2cccs2)nc2c1c(C)nn2-c1ccccc1"
quantity = "half-life"
reportedvalue = "< 2 min"


---

# assayedTarget: CYP3A4 (Homo sapiens, UniProt P08684)
# Sequence (P08684 whole entry): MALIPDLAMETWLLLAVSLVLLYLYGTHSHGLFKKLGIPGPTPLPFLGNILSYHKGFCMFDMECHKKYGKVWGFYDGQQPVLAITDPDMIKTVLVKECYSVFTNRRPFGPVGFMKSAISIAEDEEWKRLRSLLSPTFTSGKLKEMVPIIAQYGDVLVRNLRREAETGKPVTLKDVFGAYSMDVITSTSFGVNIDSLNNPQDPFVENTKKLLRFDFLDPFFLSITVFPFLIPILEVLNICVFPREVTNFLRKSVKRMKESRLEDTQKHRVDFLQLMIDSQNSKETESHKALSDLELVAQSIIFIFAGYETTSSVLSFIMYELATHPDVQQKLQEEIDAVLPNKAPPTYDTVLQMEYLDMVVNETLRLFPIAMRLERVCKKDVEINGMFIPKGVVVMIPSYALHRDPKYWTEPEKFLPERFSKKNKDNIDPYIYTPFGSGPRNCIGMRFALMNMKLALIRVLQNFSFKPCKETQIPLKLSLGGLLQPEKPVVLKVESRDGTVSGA
pIC50: −log10 of the molar value.
quantity: pIC50

[[record]]
compound = "CCN(CC)C(=O)c1cc(-c2cccs2)nc2c1c(C)nn2-c1ccccc1 [Compound 3001]"
reportedvalue = 5.52

